- Assay info: Pharmacokinetic (PK) study in mice, oral dosing, galiellalactone quantified in plasma
- Assay type: in vivo
- Assay context: oral 10 mg/kg, galiellalactone (GL) in plasma, 0 minutes to last quantifiable data point
Quantity name: AUC 0-t (μg GL/mL•min)

Use the examples below as a reference point.
>  <Compound>
COC(=O)[C@H](CS[C@H]1C2C(=O)O[C@@H]3CC[C@H](C[C@@H]1C)[C@]23O)NC(C)=O (some centres unmarked)

>  <Unit label>
μg GL/mL•min

>  <Measured number>
117

$$$$
>  <Compound>
C[C@@H]1C=C2C(=O)O[C@@H]3CC[C@H](C1)[C@]23O [Galiellalactone, (−)-Galiellalactone, reference compound]

>  <Unit label>
μg GL/mL•min

>  <Measured number>
5

$$$$

P: C[C@H]1C[C@H]2CC[C@H]3OC(=O)C([C@@H]1Sc1ccccc1)[C@@]23O (some centres unmarked)
Q: COC(=O)[C@H](CS[C@H]1C2C(=O)O[C@@H]3CC[C@H](C[C@@H]1C)[C@]23O)NC(=O)[C@@H](N)C(C)C (some centres unmarked)
Exam item: Hi there, can you help? I need to know whether P or Q has lower measured AUC 0-t. State the label of the item chosen.
Marked response: P

A: CCCCS[C@H]1C2C(=O)O[C@@H]3CC[C@H](C[C@@H]1C)[C@]23O (some centres unmarked)
B: CCOC(=O)[C@H](CS[C@H]1C2C(=O)O[C@@H]3CC[C@H](C[C@@H]1C)[C@]23O)NC(C)=O (some centres unmarked)
C: COC(=O)[C@H](CS[C@H]1C2C(=O)O[C@@H]3CC[C@H](C[C@@H]1C)[C@]23O)NC(=O)c1ccccc1F (some centres unmarked)
D: C[C@H]1C[C@H]2CC[C@H]3OC(=O)C([C@@H]1N1CCCC1)[C@@]23O.Cl (some centres unmarked) [drawing 42, reference compound]
Exam item: Please list these compounds in decreasing order of AUC 0-t. Provide the labels, sequenced as the question asks.
Marked response: A, B, C, D

A: COC(=O)[C@H](CS[C@H]1C2C(=O)O[C@@H]3CC[C@H](C[C@@H]1C)[C@]23O)NC(=O)C(C)C (some centres unmarked)
B: COC(=O)[C@H](CCS[C@H]1C2C(=O)O[C@@H]3CC[C@H](C[C@@H]1C)[C@]23O)NC(C)=O (some centres unmarked)
Exam item: Hi there, can you help? I need to know whether A or B has lower measured AUC 0-t. State the label of the item chosen.
Marked response: A
(A: 15 μg GL/mL•min, B: 150 μg GL/mL•min)

----------
- Assay info: Pharmacokinetic (PK) study in mice, oral dosing, galiellalactone quantified in plasma
- Format: in vivo
- Assay context: mouse, oral administration 10 mg/kg, plasma galiellalactone
Quantity name: AUC(0-inf) (ng·h/mL)
Give the value in ng·h/mL but do not write ng·h/mL after it.

Exam item: Would you kindly share the measured AUC(0-inf) for C[C@@H]1C=C2C(=O)O[C@@H]3CC[C@H](C1)[C@]23O [Galiellalactone, (−)-Galiellalactone, reference compound] ?
Marked response: 95

----------
- Assay info: Pharmacokinetic (PK) study in mice, oral dosing, galiellalactone quantified in plasma
- Assay type: in vivo
- Assay context: oral 10 mg/kg, galiellalactone (GL) in plasma, extrapolated to infinity
Quantity name: AUC 0-∞ (μg GL/mL•min)

>  <Compound>
COC(=O)[C@H](CCS[C@H]1C2C(=O)O[C@@H]3CC[C@H](C[C@@H]1C)[C@]23O)NC(C)=O (stereo partly drawn)

>  <Measured number>
155

$$$$
>  <Compound>
CCCCS[C@H]1C2C(=O)O[C@@H]3CC[C@H](C[C@@H]1C)[C@]23O (stereo partly drawn)

>  <Measured number>
102

$$$$
>  <Compound>
CCOC(=O)[C@H](CS[C@H]1C2C(=O)O[C@@H]3CC[C@H](C[C@@H]1C)[C@]23O)NC(C)=O (stereo partly drawn)

>  <Measured number>
22

$$$$
>  <Compound>
COC(=O)[C@H](CS[C@H]1C2C(=O)O[C@@H]3CC[C@H](C[C@@H]1C)[C@]23O)NC(=O)c1ccccc1F (stereo partly drawn)

>  <Measured number>
11

$$$$

a: C[C@H]1C[C@H]2CC[C@H]3OC(=O)C([C@@H]1N1CCCC1)[C@@]23O.Cl (stereo partly drawn) [drawing 42, reference compound]
b: COC(=O)[C@H](CS[C@H]1C2C(=O)O[C@@H]3CC[C@H](C[C@@H]1C)[C@]23O)NC(C)=O (stereo partly drawn)
Exam item: Hi there, can you help? I need to know whether a or b has lower measured AUC 0-∞. State the label of the item chosen.
Marked response: a

----------
- Assay info: Pharmacokinetic (PK) study in mice, oral dosing, galiellalactone quantified in plasma
- Assay type: in vivo
- Assay context: oral 10 mg/kg, galiellalactone (GL) in plasma, extrapolated to infinity
Quantity name: AUC 0-∞ (μg GL/mL•min)

>  <Compound>
COC(=O)[C@H](CS[C@H]1C2C(=O)O[C@@H]3CC[C@H](C[C@@H]1C)[C@]23O)NC(=O)OC(C)(C)C (some centres unmarked)

>  <Measured number>
17

$$$$

A: COC(=O)[C@H](CS[C@H]1C2C(=O)O[C@@H]3CC[C@H](C[C@@H]1C)[C@]23O)NC(=O)[C@@H](N)C(C)C (some centres unmarked)
B: C[C@@H]1C=C2C(=O)O[C@@H]3CC[C@H](C1)[C@]23O [Galiellalactone, (−)-Galiellalactone, reference compound]
C: C[C@H]1C[C@H]2CC[C@H]3OC(=O)C([C@@H]1Sc1ccccc1)[C@@]23O (some centres unmarked)
D: COC(=O)[C@H](CS[C@H]1C2C(=O)O[C@@H]3CC[C@H](C[C@@H]1C)[C@]23O)NC(=O)C(C)C (some centres unmarked)
Exam item: Please list these compounds in decreasing order of AUC 0-∞. Provide the labels, sequenced as the question asks.
Marked response: A, C, D, B
(A: 101 μg GL/mL•min, C: 41 μg GL/mL•min, D: 21 μg GL/mL•min, B: 6 μg GL/mL•min)

----------
- Assay info: Chemical stability in phosphate buffered saline
- Assay type: physicochemical
- Assay context: 0.1 M phosphate buffered saline; 0.1 M PBS pH 7.4, 10 μM, room temperature
Listed here are compounds together with their documented half-life at 10 μM.

>  <Compound>
CC(=O)N[C@@H](CS[C@H]1C2C(=O)O[C@@H]3CC[C@H](C[C@@H]1C)[C@]23O)C(N)=O (stereo partly drawn) [Example 7]

>  <half-life at 10 μM>
> 2.5 h

$$$$
>  <Compound>
COC(=O)C(N)CS[C@H]1C2C(=O)O[C@@H]3CC[C@H](C[C@@H]1C)[C@]23O (stereo partly drawn) [reference compound]

>  <half-life at 10 μM>
0.367 h

$$$$

We now examine a further compound.
Exam item: Would you kindly share the measured half-life at 10 μM for C[C@H]1C[C@H]2CC[C@H]3OC(=O)C([C@@H]1SCC(NC(=O)CCC(N)C(=O)O)C(=O)NCC(=O)O)[C@@]23O (stereo partly drawn) [Example 9] ?
Marked response: > 2.5 h
